Target: PDZ protein (GST-PDZ fusion) (Homo sapiens, UniProt Q6P0Q8)
Construct: made in house; host or cells: E. coli (DH5alpha, BL21 or JM109)
Sequence (Q6P0Q8 whole entry, the tested form may be a part): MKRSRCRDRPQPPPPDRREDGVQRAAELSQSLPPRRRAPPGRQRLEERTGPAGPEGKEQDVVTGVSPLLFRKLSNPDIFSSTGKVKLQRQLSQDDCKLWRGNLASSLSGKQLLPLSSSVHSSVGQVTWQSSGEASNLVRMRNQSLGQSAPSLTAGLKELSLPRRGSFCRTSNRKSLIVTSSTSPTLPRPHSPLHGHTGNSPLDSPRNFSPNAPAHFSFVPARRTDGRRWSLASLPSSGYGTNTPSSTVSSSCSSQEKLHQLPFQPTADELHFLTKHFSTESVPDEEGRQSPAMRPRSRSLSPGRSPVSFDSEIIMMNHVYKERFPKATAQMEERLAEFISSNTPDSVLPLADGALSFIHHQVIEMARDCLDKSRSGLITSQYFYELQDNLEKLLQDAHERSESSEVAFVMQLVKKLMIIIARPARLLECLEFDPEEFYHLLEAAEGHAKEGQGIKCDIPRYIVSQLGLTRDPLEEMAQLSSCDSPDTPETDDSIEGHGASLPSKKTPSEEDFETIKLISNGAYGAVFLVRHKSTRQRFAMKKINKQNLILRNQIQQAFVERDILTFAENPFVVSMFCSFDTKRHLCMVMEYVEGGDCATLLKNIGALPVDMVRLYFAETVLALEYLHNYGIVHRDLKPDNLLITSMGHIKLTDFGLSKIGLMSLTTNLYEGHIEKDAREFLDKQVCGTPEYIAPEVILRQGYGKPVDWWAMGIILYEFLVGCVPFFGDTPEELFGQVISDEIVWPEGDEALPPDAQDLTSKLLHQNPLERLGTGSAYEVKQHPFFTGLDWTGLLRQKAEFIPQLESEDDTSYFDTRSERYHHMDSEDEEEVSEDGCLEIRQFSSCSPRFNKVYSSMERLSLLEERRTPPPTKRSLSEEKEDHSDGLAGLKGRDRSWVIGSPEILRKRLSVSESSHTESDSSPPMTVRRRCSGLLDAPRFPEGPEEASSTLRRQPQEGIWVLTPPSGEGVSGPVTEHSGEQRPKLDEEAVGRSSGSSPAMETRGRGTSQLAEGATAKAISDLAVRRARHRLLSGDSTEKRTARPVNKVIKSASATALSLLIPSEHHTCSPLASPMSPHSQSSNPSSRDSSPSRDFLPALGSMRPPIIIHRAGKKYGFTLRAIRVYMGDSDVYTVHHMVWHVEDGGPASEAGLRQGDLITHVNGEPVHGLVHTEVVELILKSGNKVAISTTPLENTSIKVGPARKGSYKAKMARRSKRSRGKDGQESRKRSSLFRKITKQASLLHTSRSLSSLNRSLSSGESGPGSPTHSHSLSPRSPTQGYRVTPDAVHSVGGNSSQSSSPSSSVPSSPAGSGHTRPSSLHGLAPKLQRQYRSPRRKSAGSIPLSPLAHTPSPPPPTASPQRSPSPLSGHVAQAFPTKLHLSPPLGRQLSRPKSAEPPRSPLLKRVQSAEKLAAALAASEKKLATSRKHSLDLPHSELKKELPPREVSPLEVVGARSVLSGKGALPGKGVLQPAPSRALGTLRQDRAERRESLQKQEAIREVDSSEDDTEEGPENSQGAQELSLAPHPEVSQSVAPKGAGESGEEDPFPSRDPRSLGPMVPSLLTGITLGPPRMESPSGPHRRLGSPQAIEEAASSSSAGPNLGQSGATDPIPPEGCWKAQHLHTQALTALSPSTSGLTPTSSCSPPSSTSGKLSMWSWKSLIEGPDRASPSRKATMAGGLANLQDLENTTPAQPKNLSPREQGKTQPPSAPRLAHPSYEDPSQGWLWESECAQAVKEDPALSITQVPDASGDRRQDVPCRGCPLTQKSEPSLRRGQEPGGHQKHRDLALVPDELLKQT
Assay: G' assay (10 uM PL peptide), results of TABLE 7 and TABLE 12
Format: binding
Conditions: PDZ KIAA807, PDZ Domain not given
Ends that are not written are not given here. * marks the point of attachment. Biotin = O=C1N[C@H]2[C@H](CS[C@H]2CCCCC(=O)*)N1
quantity: Classification

Solved cases below.
{"columns": ["residue.sequence", "Classification"],
 "data": [
  ["SPQPDSTDNDDYDDISAA (Biotin-SPQPDSTDNDDYDDISAA) [CD6]", "1 (A450 nm 0-1)"],
  ["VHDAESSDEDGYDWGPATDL (Biotin-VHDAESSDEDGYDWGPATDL) [zona occludens 3 (ZO-3)]", "5 (A450 nm of 4 more than 2× repeated)"]
]}

QUERY: What does the data say about its Classification? Entry: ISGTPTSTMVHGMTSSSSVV (Biotin-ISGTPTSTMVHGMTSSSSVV) [Clasp-2]
RESULT: 1 (A450 nm 0-1)

QUERY: What does the data say about its Classification? Entry: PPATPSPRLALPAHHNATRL (Biotin-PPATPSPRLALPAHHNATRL) [Na+/Pi cotransporter 2]
RESULT: 5 (A450 nm of 4 more than 2× repeated)

QUERY: What does the data say about its Classification? Entry: VISKATPALPTVSISSSAEV (Biotin-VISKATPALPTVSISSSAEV) [Clasp-1]
RESULT: 1 (A450 nm 0-1)

QUERY: What does the data say about its Classification? Entry: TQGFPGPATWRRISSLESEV
RESULT: 4 (A450 nm 3-4)

QUERY: What does the data say about its Classification? Entry: LLNVLQRQELGDGLDDEIAV (Biotin-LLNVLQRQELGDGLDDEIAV)
RESULT: 1 (A450 nm 0-1)

QUERY: What does the data say about its Classification? Entry: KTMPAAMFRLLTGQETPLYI (Biotin-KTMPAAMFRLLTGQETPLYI) [MINT-2]
RESULT: 3 (A450 nm 2-3)

QUERY: What does the data say about its Classification? Entry: KPQIAALKEETEEEVQDTRL (Biotin-KPQIAALKEETEEEVQDTRL)
RESULT: 1 (A450 nm 0-1)
